Target: T1, Sortilin-6His (Homo sapiens (Human), UniProt Q99523 78-755)
T1 construct: In MST it was labelled non-covalently with RED-tris-NTA; also called soluble ectodomain of sortilin-6his; fluorescent sortilin-6his
T1 sequence (Q99523 78-755 V650M limits assumed): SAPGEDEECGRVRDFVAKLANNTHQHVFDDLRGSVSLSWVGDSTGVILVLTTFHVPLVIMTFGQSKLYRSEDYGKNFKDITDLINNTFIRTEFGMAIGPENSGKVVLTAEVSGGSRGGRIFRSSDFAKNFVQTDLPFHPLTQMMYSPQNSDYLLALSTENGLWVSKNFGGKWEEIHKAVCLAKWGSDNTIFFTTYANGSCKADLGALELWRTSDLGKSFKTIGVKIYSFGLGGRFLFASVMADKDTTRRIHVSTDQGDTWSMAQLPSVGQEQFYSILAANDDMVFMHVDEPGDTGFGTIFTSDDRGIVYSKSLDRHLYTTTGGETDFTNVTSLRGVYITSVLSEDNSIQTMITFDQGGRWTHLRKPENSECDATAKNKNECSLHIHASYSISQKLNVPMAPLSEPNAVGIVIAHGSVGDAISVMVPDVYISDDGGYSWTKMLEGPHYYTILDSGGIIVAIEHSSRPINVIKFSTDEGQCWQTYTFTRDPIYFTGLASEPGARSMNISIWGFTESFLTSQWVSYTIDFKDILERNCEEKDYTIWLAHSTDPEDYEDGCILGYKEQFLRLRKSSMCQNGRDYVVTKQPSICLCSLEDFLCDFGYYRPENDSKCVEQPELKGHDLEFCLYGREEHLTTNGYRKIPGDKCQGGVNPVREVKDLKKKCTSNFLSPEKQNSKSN
Experiment: TR-FRET (HTRF) ternary complex streptavidin-d2 / biotin-peptide / sortilin-6His; AUC score: + <5000, ++ >5000
*: point of attachment. Biotin = O=C1N[C@H]2[C@H](CS[C@H]2CCCCC(=O)*)N1
measured-endpoint: AUC of TR-FRET (HTRF ratio vs compound concentration) for ternary complex formation

>>> result("Biotin-GGSGGGGSGFQLL-OH (SMILES CC(C)C[C@H](NC(=O)[C@H](CC(C)C)NC(=O)[C@H](CCC(N)=O)NC(=O)[C@H](Cc1ccccc1)NC(=O)CNC(=O)[C@H](CO)NC(=O)CNC(=O)CNC(=O)CNC(=O)CNC(=O)[C@H](CO)NC(=O)CNC(=O)CNC(=O)CCCC[C@@H]1SC[C@@H]2NC(=O)N[C@@H]21)C(=O)O) [Biotin-GGSGGGGSGFQLL-OH]")
"< 5000 auc"
